Values were extracted from patent US20210330683A1.

# test summary: Plasma exposure (pharmacokinetics) of darunavir and efavirenz after oral administration of formulations
# conditions: male, Sprague-Dawley, rat, in vivo, po, 10 mg/kg, average plasma concentration, animals given the control formulation, at 1 hour, rats
metric name: concentration at 1 h

1. CC(C)CN(C[C@@H](O)[C@H](Cc1ccccc1)NC(=O)O[C@H]1CO[C@H]2OCC[C@H]21)S(=O)(=O)c1ccc(N)cc1 :: ~185 ng/mL

###

# test summary: Plasma exposure (pharmacokinetics) of darunavir and efavirenz after oral administration of formulations
# conditions: male, Sprague-Dawley, rat, plasma, po, 10 mg/kg, average plasma concentration, animals given the control formulation, at 2 hours, rats
metric name: concentration at 2 h

1) O=C1Nc2ccc(Cl)cc2[C@@](C#CC2CC2)(C(F)(F)F)O1 :: ~117 ng/mL
